Test: Cell Viability - LYMP2-018 (AID 985);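 also: compound exposure lasted 24 hr at 37 °C; plate controls were DMSO only for no effect and tetraoctylammonium bromide at 92 µM for full effect; nearly all actives have a fitted effect of over 50% in size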
Details: LYMP2-018 lymphoblastoid cells, viability (qHTS); series mostly up to 92.2 µM
Inconclusive results are not listed. Active and inactive are the calls of the source. Calls follow the shape of the dose curve; as a rule, active = well fitted cell-killing curve with a large enough effect; inconclusive = small, poorly fitted or top-dose-only effect; inactive = flat fitted curve, though single readings scatter.
result.type: outcome

In the examples that follow, each entry is paired with its recorded outcome.
smiles.str	outcome
c1ccc2c(c1)c1cccc3ccc4cccc2c4c31	inactive
CCCCCCCCCCCC(=O)O	inactive
OCCNCCO	inactive
Cc1cccc([N+](=O)[O-])c1C	inactive
C=CCc1ccc(OC)c(OC)c1	inactive
O=C(/C=C/c1ccc(O)c(O)c1)O[C@@H](C(=O)O)[C@@H](OC(=O)/C=C/c1ccc(O)c(O)c1)C(=O)O	inactive
Clc1cc(Cl)c(Cl)cc1Cl	inactive
O=[N+]([O-])c1cccc(Cl)c1Cl	inactive
CC(=O)OC/C=C(\C)CCC=C(C)C	inactive
O=C1CCc2ccccc2O1	inactive

Prompt line: Given the compound "CC1=CC(C)(C)Nc2ccccc21" , what is its reported outcome?
Response line: inactive

Prompt line: Repeat with "CCCCCCCCCCCCCC(=O)O"
Response line: inactive

Prompt line: Would you kindly repeat that for "COC(=O)c1ccc(C=O)cc1" ?
Response line: inactive

Prompt line: Query "COc1c2ccoc2cc2oc(=O)ccc12" next
Response line: inactive

---

Biological target: Rap guanine nucleotide exchange factor 4 (Homo sapiens) (UniProt Q8WZA2)
Sequence (Q8WZA2 whole entry, looked up): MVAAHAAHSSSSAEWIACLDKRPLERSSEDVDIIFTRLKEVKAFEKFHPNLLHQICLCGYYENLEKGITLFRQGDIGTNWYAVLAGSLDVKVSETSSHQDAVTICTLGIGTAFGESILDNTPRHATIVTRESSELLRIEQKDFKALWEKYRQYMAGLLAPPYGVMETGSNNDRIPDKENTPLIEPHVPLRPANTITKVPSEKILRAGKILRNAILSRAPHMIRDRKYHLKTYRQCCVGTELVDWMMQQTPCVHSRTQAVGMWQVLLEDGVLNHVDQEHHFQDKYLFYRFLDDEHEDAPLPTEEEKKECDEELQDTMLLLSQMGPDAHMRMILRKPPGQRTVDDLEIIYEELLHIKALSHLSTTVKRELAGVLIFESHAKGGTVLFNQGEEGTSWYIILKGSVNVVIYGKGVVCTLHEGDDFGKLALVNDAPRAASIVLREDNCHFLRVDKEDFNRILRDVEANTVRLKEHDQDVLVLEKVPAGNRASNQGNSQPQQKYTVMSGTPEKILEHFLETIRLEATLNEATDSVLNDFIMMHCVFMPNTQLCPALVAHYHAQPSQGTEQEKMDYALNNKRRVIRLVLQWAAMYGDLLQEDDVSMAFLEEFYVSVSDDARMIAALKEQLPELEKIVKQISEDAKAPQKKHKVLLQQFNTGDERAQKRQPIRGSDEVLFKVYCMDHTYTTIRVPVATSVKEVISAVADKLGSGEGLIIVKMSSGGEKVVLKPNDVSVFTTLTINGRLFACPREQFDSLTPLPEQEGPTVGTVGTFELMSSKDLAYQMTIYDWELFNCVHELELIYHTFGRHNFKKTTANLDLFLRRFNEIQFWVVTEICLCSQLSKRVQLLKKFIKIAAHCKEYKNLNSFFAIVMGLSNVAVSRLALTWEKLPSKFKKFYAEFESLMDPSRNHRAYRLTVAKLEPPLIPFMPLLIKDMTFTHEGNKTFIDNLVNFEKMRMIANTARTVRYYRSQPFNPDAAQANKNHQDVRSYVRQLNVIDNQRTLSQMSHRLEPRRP
Test: Confirmatory qHTS for agonist of cAMP-regulated guanine nucleotide exchange factor 4 (EPAC2) (AID 1645884);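 also: nucleotide exchange releases bodipy-GDP from Rap1 and this lowers its fluorescence; % is scaled to controls: 0 for no effect and ±100 for the full control effect; nearly all actives have a fitted effect of over 65% in size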
Details: EPAC2 GEF activity, Rap1B-BODIPY-GDP fluorescence; series mostly up to 154 µM
Inconclusive results are not listed. Calls of active or inactive are those of the source. The call rests on the fitted dose curve; in most records, active means well fitted activation curve with a large enough effect; inconclusive means small, poorly fitted or top-dose-only effect; inactive means no such curve, though single readings can be large or run the other way.
result.type: activation

// below: answered compounds
compound	activation
Cc1cccc(N2CCN(C(=O)c3[nH]c(C(F)(F)F)nc3-c3ccccc3)CC2)c1C	inactive
CN(C)c1ccc(C(=O)Nc2sc(Nc3ccccc3)nc2C(N)=O)cc1	inactive
CCN1CCN(S(=O)(=O)c2ccc(Cl)c(C(=O)N(C)Cc3cccc(Cl)c3Cl)c2)CC1	inactive
O=C(O)c1ccc(N/N=C/c2cn(Cc3ccccc3F)c3ccccc23)cc1	inactive

Prompt line: I'd like to know its activation. The compound in question is "Cc1cc(NS(=O)(=O)c2ccc(NC(=O)COc3c(C)cc(Br)cc3C)cc2)no1"
Response line: inactive

Prompt line: Further, for "Cc1ccc(S(=O)(=O)Nc2ccc(S(=O)(=O)Nc3nccs3)cc2)cc1C" ?
Response line: inactive

Prompt line: Queued: "O=C(CSc1nnc(-c2cccs2)n1Cc1ccco1)Nc1ccc2c(c1)OCO2"
Response line: inactive

Prompt line: "Cc1cc2c(N)cccc2nn1" , same question.
Response line: inactive

Prompt line: Try the compound "O=C(Nc1ccc(Br)cc1C(=O)O)c1ccc2c(c1)C(=O)N(Cc1ccccc1)C2=O"
Response line: inactive

Prompt line: Here is the next compound: "COC(=O)Cn1c(CN2CCc3ccccc3C2)nc2c1c(=O)n(C)c(=O)n2C"
Response line: inactive

Prompt line: What do you get for Cc1ccccc1CN1C(=O)C(C)Sc2ccc(-c3ccco3)cc21 (configuration not stated) ?
Response line: inactive

Prompt line: Field entry: "CCCn1c(=O)n(C)c(=O)c2c(SCC(=O)NCc3ccco3)nc(C3CC3)nc21"
Response line: inactive

Prompt line: Note, next up: "CCOC(=O)c1ccc(NC(=O)c2c(NCc3cccs3)sc3c2CCCCC3)cc1"
Response line: inactive

Prompt line: Next: COCCCNC(=O)C(C#N)c1nc2ccccc2nc1N1CCN(Cc2ccccc2)CC1 (configuration not stated)
Response line: inactive

Prompt line: // next record "O=C(CSc1nnc(-c2ccco2)c(-c2ccco2)n1)c1ccccc1"
Response line: inactive

---

Biological target: Cytochrome P450 2C9 (Homo sapiens)
Assay: qHTS for inhibitors of CYP2C9 against the NCATS DSHEA and TCM libraries (AID 1919973); also: potency is read from the fitted curve at half-maximal effect
Conditions: recombinant CYP2C9 enzyme activity, luminescence; series mostly up to 34.1 µM
Records with an inconclusive call do not appear. The source made the active and inactive calls. The call rests on the fitted dose curve; in most records, active means well fitted inhibition curve with a large enough effect; inconclusive means small, poorly fitted or top-dose-only effect; inactive means no such curve, though single readings can be large or run the other way.
result.type: Potency

smiles.str	Potency
Cc1ccc(O)c(O)c1	inactive
O[C@@H]1[C@@H](O)[C@H](OC/C=C/c2ccccc2)O[C@H](CO[C@@H]2OC[C@H](O)[C@H](O)[C@H]2O)[C@H]1O	inactive
COc1ccccc1/C=C/C=O	inactive
C=C1C[C@@]23CC[C@H]4[C@](C)(CCC[C@]4(C)C(=O)O[C@@H]4O[C@H](CO)[C@@H](O)[C@H](O)[C@H]4O)[C@@H]2CC[C@]1(O[C@H]1O[C@@H](CO)[C@H](O)[C@@H](O)[C@@H]1O)C3	inactive
C=C1C[C@@]23CC[C@H]4[C@@](C)(CCC[C@@]4(C)C(=O)O[C@@H]4O[C@H](CO)[C@@H](O)[C@H](O)[C@H]4O)[C@@H]2CC[C@]1(O[C@@H]1O[C@H](CO)[C@@H](O)[C@H](O[C@@H]2O[C@H](CO)[C@@H](O)[C@H](O)[C@H]2O)[C@H]1O[C@@H]1O[C@@H](C)[C@H](O)[C@@H](O)[C@H]1O)C3	inactive

Now look at this one.
Prompt line: Param item = "O=C(O)[C@H]1O[C@@H](Oc2c(-c3ccc(O)c(O)c3)oc3cc(O)cc(O)c3c2=O)[C@H](O)[C@@H](O)[C@@H]1O" ; retrieve measured Potency.
Response line: 14.1 µM (active)

---

Molecular target: Rap guanine nucleotide exchange factor 3 (Homo sapiens) (UniProt O95398)
Sequence (O95398 whole entry, looked up): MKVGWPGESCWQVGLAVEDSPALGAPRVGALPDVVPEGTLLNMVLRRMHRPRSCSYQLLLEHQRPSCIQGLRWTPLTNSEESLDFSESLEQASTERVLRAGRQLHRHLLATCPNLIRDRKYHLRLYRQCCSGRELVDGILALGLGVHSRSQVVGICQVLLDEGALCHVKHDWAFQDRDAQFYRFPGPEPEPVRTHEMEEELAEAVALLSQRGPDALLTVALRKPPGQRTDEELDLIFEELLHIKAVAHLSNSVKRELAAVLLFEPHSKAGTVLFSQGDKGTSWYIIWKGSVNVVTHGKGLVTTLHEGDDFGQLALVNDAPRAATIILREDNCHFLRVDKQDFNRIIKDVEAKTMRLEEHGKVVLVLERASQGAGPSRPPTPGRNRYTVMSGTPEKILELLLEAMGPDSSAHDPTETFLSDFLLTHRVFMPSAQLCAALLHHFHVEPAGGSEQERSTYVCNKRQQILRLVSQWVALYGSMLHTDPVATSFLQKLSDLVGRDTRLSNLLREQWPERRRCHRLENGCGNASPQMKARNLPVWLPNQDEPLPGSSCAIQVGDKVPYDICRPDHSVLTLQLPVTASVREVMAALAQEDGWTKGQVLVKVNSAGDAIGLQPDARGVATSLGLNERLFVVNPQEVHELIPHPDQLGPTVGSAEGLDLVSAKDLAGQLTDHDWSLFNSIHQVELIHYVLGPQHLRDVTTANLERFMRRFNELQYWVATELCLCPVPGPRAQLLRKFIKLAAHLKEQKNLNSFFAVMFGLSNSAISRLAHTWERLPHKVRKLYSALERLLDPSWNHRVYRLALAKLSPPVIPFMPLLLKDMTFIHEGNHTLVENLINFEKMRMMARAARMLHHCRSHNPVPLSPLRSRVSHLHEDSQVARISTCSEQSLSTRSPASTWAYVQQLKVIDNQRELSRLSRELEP
Experiment: Counterscreen qHTS for antagonist of cAMP-regulated guanine nucleotide exchange factor 3 (EPAC1) (AID 1645888);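 also: fluorescence loss as bound BODIPY-GDP is released from Rap1B; % of control where 0% means no effect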
Settings: Rap1B-BODIPY-GDP nucleotide exchange, fluorescence; series mostly up to 154 µM
Records with an inconclusive call do not appear. The source made the active and inactive calls. The call rests on the fitted dose curve; in most records, active means well fitted inhibition curve with a large enough effect; inconclusive means small, poorly fitted or top-dose-only effect; inactive means no such curve, though single readings can be large or run the other way.
result.type: activity change, negative = inhibition

Answered examples (4):
molecule	measurement
COc1ccc(CN(C(=O)c2cccs2)c2ccccc2)cc1	-5.93% [at 30.8 µM] (inactive)
COC(=O)c1ccc(-c2ccc(/C=N/N3C(=O)C4C5C=CC(C6CC56)C4C3=O)o2)cc1 (stereo unspecified)	-3.98% [at 30.8 µM] (inactive)
O=C(O)c1ccccc1NC(c1ccccc1)c1ccc(Cl)cc1 (stereo unspecified)	inactive
COc1ccc(-c2ccc(C(=O)NCC3CC3)c3occc23)c(C)c1	inactive

// next item, activity change, negative = inhibition requested
Prompt line: For the molecule "CC(C)CC(=NNC(=O)c1ccncc1)c1cc(Cl)ccc1O" , what activity change, negative = inhibition is on record?
Response line: inactive

---

Biological target: Phenylethanolamine N-methyltransferase (Homo sapiens) (UniProt P11086)
Sequence (P11086 whole entry, looked up): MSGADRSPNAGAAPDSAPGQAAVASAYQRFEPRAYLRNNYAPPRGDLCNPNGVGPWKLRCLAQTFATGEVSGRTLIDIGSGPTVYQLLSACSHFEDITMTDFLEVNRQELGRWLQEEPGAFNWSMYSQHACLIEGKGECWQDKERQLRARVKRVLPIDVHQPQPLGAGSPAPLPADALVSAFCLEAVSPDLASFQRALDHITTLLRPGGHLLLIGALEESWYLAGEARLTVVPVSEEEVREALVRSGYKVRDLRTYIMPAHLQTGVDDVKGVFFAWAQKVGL
Assay: Confirmatory Screen for Target Class Profiling of Small Molecule Inhibitors of Methyltransferases (AID 1745852)
Conditions: MTase-Glo luminescence, SAH detection, recombinant enzyme; measured here: PNMT max response; stronger effect = lower value
result.type: activity (%)
Respond with the bare value in %.

compound	readout.unit	activity
Cc1cc2c(cc3n2CC(C)(C(=O)NC2CCCCCCC2)N(Cc2ccco2)C3=O)o1 (stereo not given)	%	-6.55
Cc1cccc(-c2nnc3n(CCc4ccccc4)c(=O)c4ccccc4n23)c1	%	-10
COc1ccccc1-c1[nH]nc2ncc(C(=O)N3CCN(Cc4ccccc4)CC3)nc12	%	-61.8
c1ccc(-c2cc3c(cn2)NCCN(CC2CC2)C3)cc1	%	6.73
Cc1nc2cccnc2n1CC1CCCN(S(=O)(=O)c2ccc3c(c2)OCCO3)C1 (stereo not given)	%	-0.0682
O=c1c2ccccc2n2c(-c3ccc(F)c(F)c3)nnc2n1Cc1ccccc1Cl	%	-3.63
COC(=O)[C@@H]1Cc2ncn(Cc3ccc(Cl)cc3)c2CN1CCCc1ccccc1	%	-1.27
COc1ccc(-c2n[nH]n3c2nc(=O)c2ccc(C(=O)NCc4ccc(OC)c(OC)c4)cc23)cc1	%	0.793

Prompt line: Which measured activity value corresponds to "O=C(NCCc1ccc(Cl)cc1)c1ccc2c(=O)[nH]c3c(C(=O)NC4CCCC4)sc(=S)n3c2c1" ?
Response line: -66.5

Prompt line: Record: "CCN(CC)CCNC(=O)CCc1nnc2n(Cc3ccc(Cl)cc3)c(=O)c3ccccc3n12"
Response line: 0

Prompt line: Another compound to look at: CC(C)c1nccn1CCCNC(=O)c1ccc(N2CCCC(CO)C2)nc1 (stereo not given)
Response line: 5.49

Prompt line: // next record CC1(C(=O)NC2CCCCCC2)Cn2c(c(-n3cccc3)c3ccccc32)C(=O)N1CC1CCCO1 (stereo not given)
Response line: 0

---

Assay: Viability counterscreen for agonist of constitutive androstane receptor (CAR) against the NCATS DSHEA and TCM libraries (AID 1794838);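 also: HepG2 cells with CYP2B6 reporter and hCAR plus 0.75 µM PK11195 antagonist; cells exposed to compound for 24 h; 0% is about no effect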
Conditions: HepG2 cell viability counterscreen, CAR agonist assay, co-treated with 0.75 µM CAR antagonist; series mostly up to 40 µM
Inconclusive results are not listed. Active and inactive are the calls of the source. Calls come from the whole dose curve; as a rule, active = well fitted curve in the direction sought with a large enough effect; inconclusive = small, poorly fitted or top-dose-only effect, or another doubt; inactive = no such curve, though single readings can be large or run the other way.
result.type: activity change, negative = cytotoxicity

Worked examples, 8 molecules total:
molecule	measurement
CC1=CC[C@H](C(C)C)C=C1	inactive
O=C(O[C@@H]1Cc2c(O)cc(O)cc2O[C@@H]1c1ccc(O)c(O)c1)c1cc(O)c(O)c(O)c1	inactive
OCC1=C[C@@H](O)[C@@H]2C=CO[C@@H](OC3O[C@H](CO)[C@@H](O)[C@H](O)[C@H]3O)[C@H]12 (some centres undefined)	inactive
O=Cc1ccccc1O	inactive
CC(=O)O[C@H]1[C@H](O[C@H]2CC[C@]34C[C@]35CC[C@]3(C)[C@@H]([C@@]6(C)CC[C@@H](C(C)(C)O)O6)[C@@H](O)C[C@@]3(C)[C@@H]5C[C@H](O[C@@H]3O[C@H](CO)[C@@H](O)[C@H](O)[C@H]3O)[C@H]4C2(C)C)OC[C@@H](O)[C@@H]1O	inactive
CCCCCCCCC[C@@H](O)CC(=O)CCc1ccc(O)c(OC)c1	inactive
C[C@@H]1O[C@@H](OC[C@H]2OC(Oc3c(-c4ccc(O)c(O)c4)oc4cc(O)cc(O)c4c3=O)[C@H](O)[C@@H](O)[C@@H]2O)[C@H](O)[C@H](O)[C@H]1O (some centres undefined)	inactive
CC1(C)C2CCC1(C)C(O)C2 (centres undefined)	inactive

Then there is this molecule:
Prompt line: // activity change, negative = cytotoxicity lookup, key: C=CC(C)(CCC=C(C)C)OC(C)=O (centres undefined)
Response line: inactive
